- Test system: P388 mouse leukemia cells
- Condition Summary: 92 h
Where a SMILES comes first, the peptide text is derived from it. [ ]: non-standard residue; d: D form. The star is where a group is joined. NHCH2CH2OH = OCCN*; For = O=C*
Test Readout: cell viability/% (%)
Give the number; % is assumed, so skip it.

Some solved entries appear below for comparison.
Molecule	Target	cell viability/% (%)
CC(C)C[C@@H](NC(=O)[C@H](C)NC(=O)[C@H](NC(=O)[C@H](C)NC(=O)CNC(=O)[C@@H](NC=O)C(C)C)C(C)C)C(=O)N[C@H](C(=O)N[C@@H](C(=O)N[C@@H](Cc1c[nH]c2ccccc12)C(=O)N[C@@H](C(=O)N[C@@H](Cc1c[nH]c2ccccc12)C(=O)N[C@H](CC(C)C)C(=O)N[C@@H](Cc1c[nH]c2ccccc12)C(=O)N[C@@H](C(=O)N[C@@H](Cc1c[nH]c2ccccc12)C(=O)NCCO)C(C)C)C(C)C)[C@H](C)O)C(C)C [compound 13174] (For-VGA[dV]A[dL]V[dT]W[dV]W[dL]W[dV]W-NHCH2CH2OH)	P388 mouse leukemia cells	100.0
CC(C)C[C@@H](NC(=O)[C@H](C)NC(=O)[C@H](NC(=O)[C@H](C)NC(=O)CNC(=O)[C@@H](NC=O)C(C)C)[C@H](C)O)C(=O)N[C@H](C(=O)N[C@H](CC(C)C)C(=O)N[C@@H](Cc1c[nH]c2ccccc12)C(=O)N[C@H](CC(C)C)C(=O)N[C@@H](Cc1c[nH]c2ccccc12)C(=O)N[C@H](CC(C)C)C(=O)N[C@@H](Cc1c[nH]c2ccccc12)C(=O)N[C@H](CC(C)C)C(=O)N[C@@H](Cc1c[nH]c2ccccc12)C(=O)NCCO)C(C)C [compound 7905] (For-VGA[dT]A[dL]V[dL]W[dL]W[dL]W[dL]W-NHCH2CH2OH)	P388 mouse leukemia cells	100.0

[in] GET /values?readout=cell viability/%&item= CNC(=O)C[C@@H](NC(=O)[C@@H](NC(=O)[C@@H](CC(C)C)NC(=O)[C@H](C)NC(=O)[C@@H](CC(C)C)NC(=O)[C@H](C)NC(=O)CNC(=O)[C@@H](NC=O)C(C)C)C(C)C)C(=O)N[C@@H](Cc1c[nH]c2ccccc12)C(=O)N[C@H](CC(C)C)C(=O)N[C@@H](Cc1c[nH]c2ccccc12)C(=O)N[C@H](CC(C)C)C(=O)N[C@@H](Cc1c[nH]c2ccccc12)C(=O)N[C@@H](C(=O)N[C@@H](Cc1c[nH]c2ccccc12)C(=O)NCCO)C(C)C [compound 6851] (For-VGA[dL]A[dL]V[dD](NHMe)W[dL]W[dL]W[dV]W-NHCH2CH2OH)
[out] 100.0

[in] GET /values?readout=cell viability/%&item= CC(C)C[C@@H](NC(=O)[C@H](Cc1c[nH]c2ccccc12)NC(=O)[C@H](NC(=O)[C@H](Cc1c[nH]c2ccccc12)NC(=O)[C@H](NC(=O)[C@H](Cc1c[nH]c2ccccc12)NC(=O)[C@@H](CC(C)C)NC(=O)[C@@H](NC(=O)[C@H](NC(=O)[C@H](C)NC(=O)[C@H](NC(=O)[C@H](C)NC(=O)CNC(=O)[C@@H](NC=O)C(C)C)[C@H](C)O)C(C)C)C(C)C)C(C)C)C(C)C)C(=O)N[C@@H](Cc1c[nH]c2ccccc12)C(=O)NCCO [compound 9075] (For-VGA[dT]A[dV]V[dL]W[dV]W[dV]W[dL]W-NHCH2CH2OH)
[out] 58.6
